The origin of these recorded values is patent US20170037124A1.

Biological target: T1, negative control protein with the same mFc tag (hLDLR-mFc) (human; mouse, UniProt P01130 22-788, limits assumed)
T1 construct: also called Irrelevant control; not shown: mouse IgG2a Fc tag (same mFc tag as hANGPTL8-mFc)
T1 sequence (P01130 22-788 limits assumed): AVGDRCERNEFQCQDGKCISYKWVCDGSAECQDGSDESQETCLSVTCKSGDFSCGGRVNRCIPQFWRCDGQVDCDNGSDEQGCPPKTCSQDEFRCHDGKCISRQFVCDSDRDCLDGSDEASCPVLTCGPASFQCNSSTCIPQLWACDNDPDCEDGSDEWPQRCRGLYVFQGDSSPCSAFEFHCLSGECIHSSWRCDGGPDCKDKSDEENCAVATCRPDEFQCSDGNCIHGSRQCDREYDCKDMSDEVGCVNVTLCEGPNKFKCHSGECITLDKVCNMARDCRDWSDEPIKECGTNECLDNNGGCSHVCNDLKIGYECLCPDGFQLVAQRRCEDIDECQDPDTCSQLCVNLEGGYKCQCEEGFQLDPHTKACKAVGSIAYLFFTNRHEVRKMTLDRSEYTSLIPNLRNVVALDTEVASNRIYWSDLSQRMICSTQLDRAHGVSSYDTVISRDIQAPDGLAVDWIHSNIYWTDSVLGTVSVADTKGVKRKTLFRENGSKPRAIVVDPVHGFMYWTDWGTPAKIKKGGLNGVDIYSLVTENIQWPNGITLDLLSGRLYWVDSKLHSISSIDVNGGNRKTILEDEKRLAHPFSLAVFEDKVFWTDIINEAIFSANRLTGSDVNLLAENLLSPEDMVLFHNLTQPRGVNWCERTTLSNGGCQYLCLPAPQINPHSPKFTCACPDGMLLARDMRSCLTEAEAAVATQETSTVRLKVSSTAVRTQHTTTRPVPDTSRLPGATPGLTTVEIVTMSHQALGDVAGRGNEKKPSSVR
Assay: BLI Octet, captured antigen, 100 nM mAb, 25C
Examples of binders with documented mAb Binding Response (nm) follow.

| Binder | Result unit | mAb Binding Response (nm) |
| --- | --- | --- |
| H4H15318P (antibody, human IgG4, V domains shown, H4H prefix: human IgG4 Fc) VH: QVQLVESGGGVVQPGRSLRLSCTASGFTFGNFGIHWVRQAPGKGLEWVAVISYDGTDKFYADPVKGRFIISRDNSMNILYLQMNSLRAEDTAVYYCAKDGEMELRGYYYYYGMDVWGQGTTVTVSS VL: DIQMTQSPSSVSASVGDRVTITCRASQGINTWLAWYQQKPGTAPKLLIFAASSLESGVPSRFSGSGFGTDFTLTISSLQSEDLATYFCQQVHSPPYTFGQGTKLEIK | nm | 0.01 |
| H4H15346P (antibody, human IgG4, V domains shown, H4H prefix: human IgG4 Fc) VH: EVQLVESGGGLVQPGGSLRLSCAASGFTFSNYAMSWVRQAPGKGLEWVSTISDTGGSTYYADSVKGRFALSRDNSRNTLYLQMNSLRAEDTAVYYCAKEGPPDYWGQGTLVTVSS VL: EIVLTQSPATLSLSPGERATLSCRTSQSVSIYLAWYQQKPGQAPRLLIYDASKRATGIPARFSGRGSGTDFTLTISSLEPEDFAVYYCQQRSNWPLTFGQGTRLEIK | nm | 0 |
| H4H15330P (antibody, human IgG4, V domains shown, H4H prefix: human IgG4 Fc) VH: QVQLVESGGGLVKPGGSLRLSCAASGFTFSDYYMSWIRQAPGKGLEWISHISGSGRTTHYADSMKGRFTISRDNAKNSLYLQMNSLRAEDTAVYYCVREGGFNWNYEGTFDIWGQGTMVTVSS VL: DIVMTQTPLSSPVTLGQPASISCRSSQSLLHSDQNTYLSWLHQRPGQPPRLLIYKISNRFSGVPDRFSGSGAGTDFTLKISRVEAEDVGIYYCMQGTQFPLTFGGGTKVEIK | nm | 0.02 |
| H4H15334P (antibody, human IgG4, V domains shown, H4H prefix: human IgG4 Fc) VH: QVQLQESGPGLVKPSQTLSLTCTVSGGSINSGGYYWNWIRQHPGKGLEWIGYIYYSGSTYFNPSLKSRVTISIDTSKNQFSLKLSSVTAADTAVYYCAREGIYAFDYWGQGTLVTVSS VL: DIQMTQSPSSLSASVGDRVTITCRASQGIRNDLGWYQQKPGKAPKRLIYSASSLQSGVPSRFGGSGSGTEFTLTISSLQPEDFATYYCLQHNSYPWTFGQGTKVEIK | nm | 0 |
